List of k d values.
Target: HSA (Homo sapiens, UniProt P02768)
Sequence (P02768 25-609): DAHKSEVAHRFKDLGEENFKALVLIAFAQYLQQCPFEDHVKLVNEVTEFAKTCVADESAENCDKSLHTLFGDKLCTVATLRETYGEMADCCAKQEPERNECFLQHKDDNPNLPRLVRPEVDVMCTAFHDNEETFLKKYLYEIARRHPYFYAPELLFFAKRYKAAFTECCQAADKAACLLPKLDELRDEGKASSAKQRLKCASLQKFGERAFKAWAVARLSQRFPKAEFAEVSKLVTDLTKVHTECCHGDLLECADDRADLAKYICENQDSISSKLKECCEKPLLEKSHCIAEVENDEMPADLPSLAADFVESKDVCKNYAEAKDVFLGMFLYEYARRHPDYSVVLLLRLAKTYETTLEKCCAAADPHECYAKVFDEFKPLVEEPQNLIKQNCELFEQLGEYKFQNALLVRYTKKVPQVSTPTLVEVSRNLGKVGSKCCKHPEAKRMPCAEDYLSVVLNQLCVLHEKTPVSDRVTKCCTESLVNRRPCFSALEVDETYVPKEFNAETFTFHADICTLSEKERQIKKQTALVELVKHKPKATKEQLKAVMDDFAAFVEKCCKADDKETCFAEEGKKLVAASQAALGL
Assay: Albumin binding affinity by surface plasmon resonance
Settings: SPR, BIAcoT200 system, HSA
Square brackets hold non-standard residues; d marks the D form. Ends that are not written are not given here. * marks the point of attachment. FITC = O=C1OC2(c3ccc(O)cc3Oc3cc(O)ccc32)c2ccc(NC(=S)*)cc21; Stearoyl = CCCCCCCCCCCCCCCCCC(=O)*; Palmitoyl = CCCCCCCCCCCCCCCC(=O)*; Myristoyl = CCCCCCCCCCCCCC(=O)*; Aib = CC(C)(N)C(=O)O; Ahx = NCCCCCC(=O)O
Readout Name: k d

- {FITC-Ahx}-EYEEYK(Myristoyl)EGGGGSGGGGSFNPRH[Aib]EGTFTSDVSSYLEGQAAKEFIAWLVKGRG (N-terminus assumed) [PES16]: 0.0192 s⁻¹
- {FITC-Ahx}-EK(Stearoyl)YEEYEGGGGSGGGGSFNPRH[Aib]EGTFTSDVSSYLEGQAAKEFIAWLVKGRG (N-terminus assumed) [PES06]: 0.0922 s⁻¹
- {FITC-Ahx}-EK(Palmitoyl)YEEYEGGGGSGGGGSFNPRH[Aib]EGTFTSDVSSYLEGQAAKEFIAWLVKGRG (N-terminus assumed) [PES05]: 0.0722 s⁻¹
- {FITC-Ahx}-EYEK(Palmitoyl)EYEGGGGSGGGGSFNPRH[Aib]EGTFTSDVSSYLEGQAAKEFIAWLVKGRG (N-terminus assumed) [PES11]: 0.0782 s⁻¹
- {FITC-Ahx}-EYEEYEK(Stearoyl)GGGGSGGGGSFNPRH[Aib]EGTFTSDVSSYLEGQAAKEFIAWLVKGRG (N-terminus assumed) [PES21]: 0.036 s⁻¹

These entries and their values trace back to paper PMC9049141.
